Would you mind telling me the reported IC50 of each entry?

Report its IC50 with Carboxylic ester hydrolase (Rattus norvegicus, UniProt Q9JKC1) as the test system: "O=C(Oc1ccc(-c2cc(=O)c3c(O)c(O)c(O)cc3o2)cc1)N1CCOCC1"
Sequence (Q9JKC1 whole entry): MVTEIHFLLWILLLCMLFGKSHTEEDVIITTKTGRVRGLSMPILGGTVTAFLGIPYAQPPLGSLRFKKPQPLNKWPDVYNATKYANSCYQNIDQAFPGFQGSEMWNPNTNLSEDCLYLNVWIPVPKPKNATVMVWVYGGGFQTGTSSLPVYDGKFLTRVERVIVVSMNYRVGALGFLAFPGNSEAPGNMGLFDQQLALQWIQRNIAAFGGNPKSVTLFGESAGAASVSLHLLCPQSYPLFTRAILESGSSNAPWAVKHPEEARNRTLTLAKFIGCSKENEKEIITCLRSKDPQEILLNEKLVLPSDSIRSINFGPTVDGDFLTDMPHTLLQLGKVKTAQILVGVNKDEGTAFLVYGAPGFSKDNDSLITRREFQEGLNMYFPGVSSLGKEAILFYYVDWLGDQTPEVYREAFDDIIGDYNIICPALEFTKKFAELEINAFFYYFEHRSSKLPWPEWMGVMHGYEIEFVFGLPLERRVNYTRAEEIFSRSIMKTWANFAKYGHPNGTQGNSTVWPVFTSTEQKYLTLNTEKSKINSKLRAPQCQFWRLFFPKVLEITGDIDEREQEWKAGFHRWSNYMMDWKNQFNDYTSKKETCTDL
> 100 µM

Report its IC50 with Carboxylic ester hydrolase (Rattus norvegicus, UniProt Q9JKC1) as the test system: "O=c1cc(-c2ccc(O)cc2)oc2cc(O)c(O)c(O)c12"
> 100 µM

Report its IC50 with Carboxylic ester hydrolase (Rattus norvegicus, UniProt Q9JKC1) as the test system: "O=C(Oc1ccc(-c2cc(=O)c3c(O)c(O)c(O)cc3o2)cc1)N1CCCCC1"
> 100 µM
